# Measured On: purified Na^+, K^+ -ATPase (Canis lupus familiaris)
# Construct: from tissue
# Procedure Text: inhibition of the activity of the purified Na^+, K^+ -ATPase (hydrolysis of ^32 P-ATP)
# Assay type: biochemical
Quantity Measured: pIC50
// scale note: pIC50 = -log10(conc_M); give the bare number

So what's the measured pIC50 for this one? CN(C)CCONC[C@H]1CC[C@]2(O)[C@@H]3CC[C@@H]4C[C@@H](OCCCN)CC[C@]4(C)[C@H]3CC[C@]12C
4.50

Subsequent entry: C[C@]12CC[C@H](O)C[C@H]1CC[C@@H]1[C@@H]2CC[C@]2(C)[C@@H](CNNC3=NCCCN3)CC[C@]12O
5.40

Subsequent entry: CC(=C[C@H]1CC[C@]2(O)[C@@H]3CC[C@@H]4C[C@@H](O)CC[C@]4(C)[C@H]3CC[C@]12C)CNOCCN(C)C
4.20

Subsequent entry: CN(C)CCCONC[C@H]1CC[C@]2(O)[C@@H]3CC[C@@H]4C[C@@H](O)CC[C@]4(C)[C@H]3CC[C@]12C
4.20

---

# Measured On: Na^+, K^+ -ATPase receptor
# Procedure Text: displacement of the specific ^3 H-ouabain binding from the Na^+, K^+ -ATPase receptor
# Test Settings: ^3 H-ouabain displacement, purified Na^+
Binary label based on Binding ^3 H-Ouab. Displacement (-log IC50) with cut-off 6: below gives 1, not below gives -1.

Dear reviewer, please state whether C[C@]12CC[C@H](O)C[C@H]1CC[C@@H]1[C@@H]2CC[C@]2(C)[C@@H](CNO)CC[C@]12O has Binding ^3 H-Ouab. Displacement (-log IC50) strictly beneath 6.
1

Subsequent entry: CN(C)CCONCCC[C@H]1CC[C@]2(O)[C@@H]3CC[C@@H]4C[C@@H](O)CC[C@]4(C)[C@H]3CC[C@]12C
1

Subsequent entry: CN(C)CCONC[C@H]1CC[C@]2(O)[C@@H]3CC[C@@H]4C[C@@H](OCCCN)CC[C@]4(C)[C@H]3CC[C@]12C
-1

Subsequent entry: CN(C)CCONC[C@@]1(O)CC[C@]2(O)[C@@H]3CC[C@@H]4C[C@@H](O)CC[C@]4(C)[C@H]3CC[C@]12C
1

Subsequent entry: C[C@]12CC[C@H](O)C[C@H]1CC[C@@H]1[C@@H]2CC[C@]2(C)[C@@H](CNNC(=N)Nc3ccccc3)CC[C@]12O
1

Subsequent entry: C[C@]12CC[C@H](O)C[C@H]1CC[C@@H]1[C@@H]2CC[C@]2(C)[C@@H](CNNC3=NCCCN3)CC[C@]12O
-1

Subsequent entry: CN(C)CCNC(=N)NNC[C@H]1CC[C@]2(O)[C@@H]3CC[C@@H]4C[C@@H](O)CC[C@]4(C)[C@H]3CC[C@]12C
1

Subsequent entry: C[C@]12CC[C@H](O)C[C@H]1CC[C@@H]1[C@@H]2CC[C@]2(C)[C@@H](CNOCCN)CC[C@]12O
-1

Subsequent entry: C[C@]12CC[C@H](O)C[C@H]1CC[C@@H]1[C@@H]2CC[C@]2(C)[C@@H](C=CCNOCCN)CC[C@]12O
-1

Subsequent entry: C[C@]12CC[C@H](O)C[C@H]1CC[C@@H]1[C@@H]2CC[C@]2(C)[C@@H](CNNC(=N)N)CC[C@]12O
-1

---

# Measured On: purified Na^+, K^+ -ATPase (Canis lupus familiaris, UniProt P50997)
# Construct: from tissue
# Procedure Text: inhibition of the activity of the purified Na^+, K^+ -ATPase (hydrolysis of ^32 P-ATP)
# Format: biochemical
# Test Settings: hydrolysis of ^32 P-ATP, purified Na^+, K^+ -ATPase; read-out: Inhibitory Activity (-log IC50) (converted)
Can you tell me IC50 for the items I'm about to list?
Numeric answer only, unit µM assumed.

So what's the measured IC50 for this one? CN(C)CCONCCC[C@H]1CC[C@]2(O)[C@@H]3CC[C@@H]4C[C@@H](O)CC[C@]4(C)[C@H]3CC[C@]12C
39.8

Subsequent entry: C[C@]12CC[C@H](O)C[C@H]1CC[C@@H]1[C@@H]2CC[C@]2(C)[C@@H](CNNC3=NCCN3)CC[C@]12O
3.16

Subsequent entry: C[C@]12CC[C@H](O)C[C@H]1CC[C@@H]1[C@@H]2CC[C@]2(C)[C@@H](CNOCCNC(=N)N)CC[C@]12O
39.8

Subsequent entry: CN(C)CCONCC=C[C@H]1CC[C@]2(O)[C@@H]3CC[C@@H]4C[C@@H](O)CC[C@]4(C)[C@H]3CC[C@]12C
39.8

Subsequent entry: CN(C)CCONCC[C@H]1CC[C@]2(O)[C@@H]3CC[C@@H]4C[C@@H](O)CC[C@]4(C)[C@H]3CC[C@]12C
39.8

---

# Measured On: purified Na^+, K^+ -ATPase (Canis lupus familiaris, UniProt P50997)
# Construct: from tissue
# Procedure Text: inhibition of the activity of the purified Na^+, K^+ -ATPase (hydrolysis of ^32 P-ATP)
# Type: biochemical
Quantity Measured: pIC50
// scale note: pIC50 = -log10(conc_M); give the bare number

So what's the measured pIC50 for this one? CC(NNC(=N)N)[C@H]1CC[C@]2(O)[C@@H]3CC[C@@H]4C[C@@H](O)CC[C@]4(C)[C@H]3CC[C@]12C (some centres unmarked) [Comp. I-ag]
5.20

Subsequent entry: CN(C)CCONC[C@H]1CC[C@]2(O)[C@@H]3CC[C@@H]4C[C@@H](OCCN5CCCC5)CC[C@]4(C)[C@H]3CC[C@]12C [Comp. I-bd]
4.50

Subsequent entry: CN(C)CCNC(=N)NNC[C@H]1CC[C@]2(O)[C@@H]3CC[C@@H]4C[C@@H](O)CC[C@]4(C)[C@H]3CC[C@]12C [Comp. I-ae]
4.50

Subsequent entry: CN(C)CCCCONC[C@H]1CC[C@]2(O)[C@@H]3CC[C@@H]4C[C@@H](O)CC[C@]4(C)[C@H]3CC[C@]12C [Comp. I-ao]
4.10

Subsequent entry: C[C@]12CC[C@H](O)C[C@H]1CC[C@@H]1[C@@H]2CC[C@]2(C)[C@@H](C=CCNNC(=N)N)CC[C@]12O [Comp. I-as]
4.50

---

# Measured On: Na^+, K^+ -ATPase receptor
# Procedure Text: displacement of the specific ^3 H-ouabain binding from the Na^+, K^+ -ATPase receptor
# Test Settings: ^3 H-ouabain displacement, purified Na^+
Can you tell me Binding ^3 H-Ouab. Displacement (-log IC50) for the items I'm about to list?
Output: the number by itself.

What Binding ^3 H-Ouab. Displacement (-log IC50) appears in the records for this molecule with Na^+, K^+ -ATPase receptor? C[C@]12CC[C@H](O)C[C@H]1CC[C@@H]1[C@@H]2CC[C@]2(C)[C@@H](C=CCNNC(=N)N)CC[C@]12O
6.0

Subsequent entry: C[C@]12CC[C@H](O)C[C@H]1CC[C@@H]1[C@@H]2CC[C@]2(C)[C@@H](CNOCCNC(=N)N)CC[C@]12O
6.0

Subsequent entry: CN(C)CCONC[C@H]1CC[C@]2(O)[C@@H]3CC[C@@H]4C[C@@H](OCCN)CC[C@]4(C)[C@H]3CC[C@]12C
6.1
